- Target Of Assay: HDGF PWWP domain;HDGF C140 domain (human;human, UniProt P51858;P51858 1-100;101-240, |)
- Sequence (P51858 1-100, chain 1 of 2): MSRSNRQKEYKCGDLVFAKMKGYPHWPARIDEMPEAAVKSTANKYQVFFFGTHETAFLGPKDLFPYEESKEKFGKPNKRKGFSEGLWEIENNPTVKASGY
- Sequence (P51858 101-240, chain 2 of 2): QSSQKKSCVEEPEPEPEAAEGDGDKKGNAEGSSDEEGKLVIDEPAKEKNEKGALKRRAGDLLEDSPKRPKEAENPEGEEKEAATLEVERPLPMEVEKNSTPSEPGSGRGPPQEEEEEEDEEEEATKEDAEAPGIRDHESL
- Experiment Description: PIFQ (Cy3 fluorescence quenching); 1 nM DNA; equal amounts premixed; Hill n=0.63; HDGF assays: 46 mM NaCl, 0.9 mM KCl, 3.3 mM Na2HPO4, 0.66 mM KH2PO4, pH 7.4; at least 1 h on ice; 1-10 nM Cy3 DNA, 10 pM-100 nM protein; RecA dsDNA control at pH 7.5
- Recorded Conditions: protein: recombinant;recombinant; copies: 1;1; label: 5' Cy3
Recorded Endpoint: Kd (pM)
The reply should be a number in pM, with the unit left off.

**Q:** I'd like to know its Kd. The binder in question is 15 bp SMYD1 dsDNA (5' Cy3) (dsDNA) DNA 1: TTCAAGACCAGCCTG DNA 2: CAGGCTGGTCTTGAA
**A:** 120
